# Study Target: Recombinant human MMP-2 (Homo sapiens, UniProt P08253)
# Construct: made in house
# Sequence (P08253 110-660): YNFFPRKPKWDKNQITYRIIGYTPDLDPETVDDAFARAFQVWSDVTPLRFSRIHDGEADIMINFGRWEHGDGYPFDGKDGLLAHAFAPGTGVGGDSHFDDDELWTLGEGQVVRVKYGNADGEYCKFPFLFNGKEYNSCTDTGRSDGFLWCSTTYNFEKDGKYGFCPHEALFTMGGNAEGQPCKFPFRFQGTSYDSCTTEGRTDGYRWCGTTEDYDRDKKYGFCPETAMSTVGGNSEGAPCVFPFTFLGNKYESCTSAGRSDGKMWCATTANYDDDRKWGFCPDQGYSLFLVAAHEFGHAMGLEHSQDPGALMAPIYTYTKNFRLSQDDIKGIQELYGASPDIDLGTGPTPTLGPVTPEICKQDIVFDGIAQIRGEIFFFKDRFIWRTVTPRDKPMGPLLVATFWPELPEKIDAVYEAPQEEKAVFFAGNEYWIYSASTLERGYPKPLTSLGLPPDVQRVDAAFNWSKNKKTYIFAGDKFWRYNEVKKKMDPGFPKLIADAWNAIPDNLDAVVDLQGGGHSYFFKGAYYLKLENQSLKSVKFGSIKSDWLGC
# Procedure Text: biochemical
# Conditions: fluorogenic MCA-peptide substrate, pH 7.5, room temperature; read-out: MMP-2 IC50
Exercise: for every item that follows, state its recorded IC50.
Give bare numbers, in nM.

The examples below pair each entry with its known result.
> print(dat)
                                   compound  observed
1  C=CCN1CCC(C(=O)NO)(S(=O)(=O)c2ccc(N3CCC(C(=O)c4ccc(Cl)cc4)CC3)cc2)CC1      52.7
2  O=C(C1CCN(c2ccc(S(=O)(=O)C3(C(=O)NO)CCOCC3)cc2)CC1)N1CCN(c2ccc([N+](=O)[O-])cc2)CC1       445
3  COCCN1CCC(C(=O)NO)(S(=O)(=O)c2ccc(N3CCC(c4ccc(Cl)cc4)CC3)cc2)CC1       1.7
4  CCC(C)Cc1ccc(C(=O)C2CCN(c3ccc(S(=O)(=O)C4(C(=O)NO)CCN(C5CC5)CC4)cc3)CC2)cc1 (stereo not shown)      1400
5  O=C(NO)C1(S(=O)(=O)c2ccc(N3CCC(SCc4ccc(OC(F)(F)F)cc4)CC3)cc2)CCN(C2CC2)CC1       100

We now examine a further compound.
IC50 in this record for COCCN1CCC(C(=O)NO)(S(=O)(=O)c2ccc(N3CCC(C(=O)c4ccc(C=C(C)C)s4)CC3)cc2)CC1 : 106
